Target: T1, human W3785-hProl.ECD.His (Human-TNFR2-His) protein (human, UniProt P20333 23-257)
T1 construct: extracellular domain; not shown: His tag
T1 sequence (looked up): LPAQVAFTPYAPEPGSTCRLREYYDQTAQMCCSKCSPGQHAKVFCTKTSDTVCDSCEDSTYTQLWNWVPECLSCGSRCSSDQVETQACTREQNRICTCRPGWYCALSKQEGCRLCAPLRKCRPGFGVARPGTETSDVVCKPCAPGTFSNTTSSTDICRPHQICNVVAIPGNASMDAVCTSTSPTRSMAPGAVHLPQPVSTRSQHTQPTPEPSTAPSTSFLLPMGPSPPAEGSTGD
Experiment: BLI (Octet Red96e), antibody on AHC sensor, Human-TNFR2-His in solution, multiple concentrations
outcome measure: kon (M⁻¹ s⁻¹)
Give bare numbers, in M⁻¹ s⁻¹.

Here are 4 binders together with their reported answers.
binder	outcome measure	measured number
Antibody 22 (antibody, V domains shown, detected with anti-human IgG and captured on AHC sensors) VH: EVQLVESGGGLVKPGGSLRLSCAASGFTFSNAWMGWVRQAPEKGLEWVGQIKDKSNNYPTYYAESVKGRFTISRDDSKNTLYLQMNSLKTEDTAVYYCTTYGDFFDYWGQGTLVTVSS VL: DIQMTQSPSSLSASVGDRVTITCRASEDIYQGLAWYQQKPGKVPKLLLYNANSLHTGVPSRFSGSGSGTDYTLTISSLQPEDFATYFCQQYYDHPLTFGQGTKLEIK	kon	500000
Antibody 19 (antibody, V domains shown, captured on AHC sensors) VH: QVQLVQSGAEVKKPGASVKVSCKASGYTFTDYIIHWVRQAPGQGLEWMGWIDPDYGNTDYADKFKKRVTMTADTSISTAFMELSRLRSDDTAVYYCARDDASPLVMDAWGQGTLVTVSS VL: DIQMTQSPSSLSASVGDRVTITCQGSQNIDNYLAWFQQKPGKAPKLLIYSTYSLQTGVPSRFSGSRSGTDFTLTISSLQPEDFATYFCFQYNQGYMFGGGTKLELK	kon	862000
Antibody 13 (antibody, V domains shown, detected with anti-human IgG and captured on AHC sensors) VH: QVQLVQSGAEVKKPGASVKVSCKASGYTFTDYIIHWVRQAPGQGLEWMGWIDPDYGNTDYADKFKKRVTMTADTSISTAFMELSRLRSDDTAVYYCARDDGSPLVMDAWGQGTLVTVSS VL: DIQMTQSPSSLSASVGDRVTITCNGAQNIDNYLAWFQQKPGKAPKLLIYSTYSLQTGVPSRFSGSRSGTDFTLTISSLQPEDFATYFCFQYNNGYMFGGGTKLELK	kon	1.15e+06
Antibody 26 (antibody, V domains shown, captured on AHC sensors) VH: EVQLVQSGAEVKKPGATVKISCKVSGYSITDYLLHWVQQAPGKGLEWMGWIDPEEGKTKYGQKFQSRVTITADTSTDTAYMELSSLRSEDTAVYYCAANSATGTMDAWGQGTLVTVSS VL: DIVMTQSPATLSVSPGERATLSCKASQNVGSNVDWYQQKPGQSPRVLIYKASIRYTGIPARFSGSGSGTEFTLTISILQSEDFAVYFCMQSKSYPITFGQGTKLEIK	kon	256000

Shift focus to the following entry.
// Antibody 27 (antibody, V domains shown, captured on AHC sensors) VH: EVQLVQSGAEVKKPGATVKISCKVSGYSITDYLLHWVQQAPGKGLEWMGWIDPEDAKTKYGQKFQSRVTITADTSTDTAYMELSSLRSEDTAVYYCAAQSGTGTMDAWGQGTLVTVSS VL: DIVMTQSPATLSVSPGERATLSCKASQNVGSNVDWYQQKPGQSPRVLIYKASIRYTGIPARFSGSGSGTEFTLTISILQSEDFAVYFCMQSKSYPITFGQGTKLEIK : kon value = 1.44e+06
